# Test system: Cutibacterium acnes
# Protocol Description: Antimicrobial activity against Propionibacterium acnes DSM 1897
# Type: functional, organism-based
Active and inactive are the calls of the source. No cut-off for these calls is given here.
Measured Quantity: Activity

INSERT INTO results (molecule, measured_quantity, reported_result) VALUES
  ('O=C1OCC(Cc2ccc(O)cc2)=C1c1cc(O)cc(O)c1 [EUTYPOID D]', 'Activity', 'inactive'),
  ('O=C1OCC(Cc2ccc(O)c(O)c2)=C1c1ccc(O)cc1 [EUTYPOID C]', 'Activity', 'inactive'),
  ('O=C1OCC(Cc2ccc(O)cc2)=C1c1ccc(O)cc1 [EUTYPOID B]', 'Activity', 'inactive'),
  ('O=C1OCC(Cc2ccc(O)c(O)c2)=C1c1cc(O)cc(O)c1 [EUTYPOID E]', 'Activity', 'inactive');

====

# Test system: Zymoseptoria tritici
# Protocol Description: Antimicrobial activity against Septoria tritici
# Assay type: functional, organism-based
Activity calls are given as the source filed them. The calls are words filed in the database; no cut-off is given here.
Measured Quantity: Activity

INSERT INTO results (smiles_structure, reported_result) VALUES
  ('O=C1OCC(Cc2ccc(O)cc2)=C1c1ccc(O)cc1', 'inactive'),
  ('O=C1OCC(Cc2ccc(O)cc2)=C1c1cc(O)cc(O)c1', 'inactive'),
  ('O=C1OCC(Cc2ccc(O)c(O)c2)=C1c1ccc(O)cc1', 'inactive'),
  ('O=C1OCC(Cc2ccc(O)c(O)c2)=C1c1cc(O)cc(O)c1', 'inactive');

====

# Test system: Staphylococcus epidermidis
# Protocol Description: Antimicrobial activity against Staphylococcus epidermidis DSM 20044
# Assay type: functional, organism-based
Calls of active or inactive are those of the source. The rule behind the calls is not given here.
Measured Quantity: Activity

INSERT INTO results (smiles_structure, reported_result) VALUES
  ('O=C1OCC(Cc2ccc(O)c(O)c2)=C1c1cc(O)cc(O)c1', 'inactive'),
  ('O=C1OCC(Cc2ccc(O)cc2)=C1c1ccc(O)cc1', 'inactive'),
  ('O=C1OCC(Cc2ccc(O)c(O)c2)=C1c1ccc(O)cc1', 'inactive'),
  ('O=C1OCC(Cc2ccc(O)cc2)=C1c1cc(O)cc(O)c1', 'inactive');

====

# Assayed System: Glycogen synthase kinase-3 beta (Homo sapiens)
# Sequence (P49841 whole entry): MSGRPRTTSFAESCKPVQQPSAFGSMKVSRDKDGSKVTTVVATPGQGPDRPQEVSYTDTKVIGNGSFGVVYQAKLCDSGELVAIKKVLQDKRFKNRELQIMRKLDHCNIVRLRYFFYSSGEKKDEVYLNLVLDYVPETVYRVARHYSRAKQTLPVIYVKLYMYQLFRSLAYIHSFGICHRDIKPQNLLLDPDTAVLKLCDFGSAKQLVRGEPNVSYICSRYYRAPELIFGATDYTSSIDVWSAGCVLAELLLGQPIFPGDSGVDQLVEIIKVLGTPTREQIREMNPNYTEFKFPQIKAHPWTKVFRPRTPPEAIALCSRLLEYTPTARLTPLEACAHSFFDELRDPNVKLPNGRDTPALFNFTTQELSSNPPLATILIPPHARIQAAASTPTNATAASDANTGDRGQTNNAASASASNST
Measured Quantity: pIC50
To interpret pIC50, take it as minus log10 of a concentration measured in moles per litre.

Below, each entry is followed by its recorded pIC50 result.
INSERT INTO assay_data (compound, reported_result) VALUES
  ('O=C1OCC(Cc2ccc(O)c(O)c2)=C1c1cc(O)cc(O)c1 [EUTYPOID E]', 5.65),
  ('O=C1OCC(Cc2ccc(O)cc2)=C1c1ccc(O)cc1 [EUTYPOID B]', 6.11),
  ('O=C1OCC(Cc2ccc(O)cc2)=C1c1cc(O)cc(O)c1 [EUTYPOID D]', 5.39);

# compound O=C1OCC(Cc2ccc(O)c(O)c2)=C1c1ccc(O)cc1 [EUTYPOID C] ; its pIC50 = 6.17
